Target: hpol ι^26–446 (Homo sapiens)
Sequence (Q9UNA4 26-446): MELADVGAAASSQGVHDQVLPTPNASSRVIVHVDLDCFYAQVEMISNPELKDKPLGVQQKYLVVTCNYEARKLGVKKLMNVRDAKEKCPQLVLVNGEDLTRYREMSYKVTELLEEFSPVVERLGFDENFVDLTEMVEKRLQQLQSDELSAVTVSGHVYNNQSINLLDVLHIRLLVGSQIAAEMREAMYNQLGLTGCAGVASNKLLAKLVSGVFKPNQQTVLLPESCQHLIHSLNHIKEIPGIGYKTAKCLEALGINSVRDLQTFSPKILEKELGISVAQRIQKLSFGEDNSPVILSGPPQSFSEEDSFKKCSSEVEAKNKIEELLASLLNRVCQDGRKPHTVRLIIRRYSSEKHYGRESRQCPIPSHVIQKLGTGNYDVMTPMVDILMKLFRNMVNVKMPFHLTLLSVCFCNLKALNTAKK
Assay type: binding
Settings: read-out: Kd,DNA (polymerase binding to primer-template DNA); 100 μM MK886
Endpoint: Kd (nM)

| Compound | Endpoint | Unit Text | Value Reported |
| --- | --- | --- | --- |
| CC(C)c1ccc2c(c1)c(SC(C)(C)C)c(CC(C)(C)C(=O)O)n2Cc1ccc(Cl)cc1 [MK886] | Kd | nM | 18.8 |

---

Target: hpol η^1–437 (Homo sapiens)
Sequence (Q9Y253 1-437): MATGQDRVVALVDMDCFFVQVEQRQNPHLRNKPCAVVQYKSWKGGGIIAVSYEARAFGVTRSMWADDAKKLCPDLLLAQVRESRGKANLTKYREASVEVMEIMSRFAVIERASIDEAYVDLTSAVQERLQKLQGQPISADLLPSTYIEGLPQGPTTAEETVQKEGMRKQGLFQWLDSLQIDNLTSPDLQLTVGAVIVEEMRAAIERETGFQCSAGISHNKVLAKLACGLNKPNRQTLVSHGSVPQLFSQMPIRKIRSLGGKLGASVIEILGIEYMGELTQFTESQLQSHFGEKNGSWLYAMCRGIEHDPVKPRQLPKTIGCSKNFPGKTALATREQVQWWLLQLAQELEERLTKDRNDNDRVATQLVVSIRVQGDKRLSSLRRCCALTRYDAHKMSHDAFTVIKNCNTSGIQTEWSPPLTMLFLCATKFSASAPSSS

| Smiles Record | IC50 / µM |
| --- | --- |
| CC(C)c1ccc2c(c1)c(SC(C)(C)C)c(CC(C)(C)C(=O)O)n2Cc1ccc(Cl)cc1 | 45.8 |

Source listed as paper PMC3578163.
